assay_remarks: Pharmacokinetics in CD-1 mice following a single intraperitoneal dose (parent and TH2660)
reported_conditions: mouse, in vivo, ip, parent compound
value_type: Cmax (ng/mL)

> print(dat)
                                   compound  value.type  measured.result
1  CN(C)C(=O)c1cccc(Oc2cc(COP(=O)(N3CC3)N3CC3)ccc2[N+](=O)[O-])c1 [Compound 2889]        Cmax             2480
2  O=[N+]([O-])c1ccc(COP(=O)(N2CC2)N2CC2)cc1Oc1ccc2c(c1)OCO2 [Compound 2888]        Cmax             5810
3  COc1ccc(Oc2cc(C(C)OP(=O)(N3CC3)N3CC3)ccc2[N+](=O)[O-])cc1 (stereo not shown) [Compound 2873]        Cmax             8430
4  CC(OP(=O)(N1CC1)N1CC1)c1ccc([N+](=O)[O-])c(Oc2ccc(S(C)(=O)=O)cc2)c1 (stereo not shown) [Compound 2883]        Cmax             7570

###

assay_remarks: Pharmacokinetics of TH2953 in NU/NU mice with A549 and H460 xenografts
Format: in vivo, Mouse/Nu-Foxn 1nu NU/NU mice
reported_conditions: Nu-Foxn1nu NU/NU, mouse, liver (relative to plasma), intraperitoneal; A549 tumor xenograft; 10 and 40 mg/kg ip; read-out: concentration in the liver as % of the concentrations in plasma
value_type: Kp

> print(dat)
                                   compound  value.type  measured.result
1  CC(OP(=O)(N1CC1)N1CC1)c1ccc([N+](=O)[O-])c(Oc2ccc(-c3ccccc3)cc2)c1 (stereo not shown) [Compound 2953]          Kp     2.97 to 5.41

###

assay_remarks: Pharmacokinetics of TH2953 in NU/NU mice with A549 and H460 xenografts
Assay type: in vivo, Mouse/Nu-Foxn 1nu NU/NU mice
reported_conditions: Nu-Foxn1nu NU/NU, mouse, plasma, ip, 10 mg/kg, TH2953 10 mg/kg single ip; H460 xenograft
value_type: AUC

> print(dat)
                                   molecule  value.type  measured.result
1  CC(OP(=O)(N1CC1)N1CC1)c1ccc([N+](=O)[O-])c(Oc2ccc(-c3ccccc3)cc2)c1 (stereo not shown)         AUC     7400 ng·h/mL

###

assay_remarks: Pharmacokinetics of TH2870 in CD-1 mice, single IV bolus and single IP dose
reported_conditions: mouse, in vivo, IP 10 mg/kg
value_type: half-life (min)

> print(dat)
                                   molecule  measured.result
1  CC(OP(=O)(N1CC1)N1CC1)c1ccc([N+](=O)[O-])c(Oc2cccc(C(=O)N(C)C)c2)c1 (stereo not shown)                9

###

assay_remarks: Pharmacokinetics of TH2870 in CD-1 mice, single IV bolus and single IP dose
reported_conditions: mouse, in vivo, IP 10 mg/kg
value_type: Tmax (min)

> print(dat)
                                   compound  value.type  measured.result
1  CC(OP(=O)(N1CC1)N1CC1)c1ccc([N+](=O)[O-])c(Oc2cccc(C(=O)N(C)C)c2)c1 (stereo not shown) [Compound 2870]        Tmax                5

###

assay_remarks: Pharmacokinetics of TH2870 in CD-1 mice, single IV bolus and single IP dose
reported_conditions: mouse, in vivo, IV bolus 5 mg/kg
value_type: Tmax (min)

> print(dat)
                                   molecule  measured.result
1  CC(OP(=O)(N1CC1)N1CC1)c1ccc([N+](=O)[O-])c(Oc2cccc(C(=O)N(C)C)c2)c1 (stereo not shown)                2

###

assay_remarks: Example 4-C body weight change, A375 xenograft study
Assay type: in vivo, female nude mice (nu/nu)
reported_conditions: 10 mpk, qd × 5 × 2, ip
Tick t if Max. BW loss % is 3% or greater. Tick f if Max. BW loss % is less than 3%.

> print(dat)
                                   molecule  qualitative.label
1  Cc1ccc(Oc2cc(COP(=O)(N3CC3)N3CC3)ccc2[N+](=O)[O-])cn1                  t
2  O=[N+]([O-])c1ccc(COP(=O)(N2CC2)N2CC2)cc1Oc1ccc2c(c1)OCO2                  t
3  CN(C)C(=O)c1cccc(Oc2cc(COP(=O)(N3CC3)N3CC3)ccc2[N+](=O)[O-])c1                  f
4  CC(OP(=O)(N1CC1)N1CC1)c1ccc([N+](=O)[O-])c(Oc2cccnc2)c1 (centres unmarked)                  f
5  O=[N+]([O-])c1ccc(COP(=O)(N2CC2)N2CC2)cc1Oc1ccccc1                  f

###

assay_remarks: in vivo
reported_conditions: Nu-Foxn 1nu NU/NU, mouse, ip, 20 mg/kg, Cmax
value_type: Cmax (ng/mL)

> print(dat)
                                   compound  value.units  measured.result
1  CC(OP(=O)(N1CC1)N1CC1)c1ccc([N+](=O)[O-])c(Oc2cccc(C(=O)N(C)C)c2)c1 (stereo not shown)        ng/mL             5010

###

Below, each entry is listed with its recorded AUC.
assay_remarks: Pharmacokinetics in CD-1 mice following a single intraperitoneal dose (parent and TH2660)
reported_conditions: mouse, in vivo, ip, parent compound
value_type: AUC (ng·h/mL)

> print(dat)
                                   compound  measured.result
1  O=[N+]([O-])c1ccc(COP(=O)(N2CC2)N2CC2)cc1Oc1ccc2ncsc2c1             2580
2  O=[N+]([O-])c1ccc(COP(=O)(N2CC2)N2CC2)cc1Oc1ccc2c(c1)OCO2             1600
3  CC(OP(=O)(N1CC1)N1CC1)c1ccc([N+](=O)[O-])c(Oc2ccc(S(C)(=O)=O)cc2)c1 (stereo not drawn)             9080

###

assay_remarks: Pharmacokinetics in CD-1 mice following a single intraperitoneal dose (parent and TH2660)
reported_conditions: mouse, in vivo, ip, parent compound
value_type: half-life (min)

> print(dat)
                                   molecule  measured.result
1  CC(OP(=O)(N1CC1)N1CC1)c1ccc([N+](=O)[O-])c(Oc2ccc(S(C)(=O)=O)cc2)c1 (stereo not shown) [Compound 2883]             23.4
2  CC(OP(=O)(N1CC1)N1CC1)c1ccc([N+](=O)[O-])c(Oc2ccc(NS(=O)(=O)CCl)cc2)c1 (stereo not shown) [Compound 2926]             34.2
3  Cc1ccc(Oc2cc(COP(=O)(N3CC3)N3CC3)ccc2[N+](=O)[O-])cn1 [Compound 2890]             5.49
4  COc1ccc(Oc2cc(C(C)OP(=O)(N3CC3)N3CC3)ccc2[N+](=O)[O-])cc1 (stereo not shown) [Compound 2873]             8.81
5  O=[N+]([O-])c1ccc(COP(=O)(N2CC2)N2CC2)cc1Oc1ccc2c(c1)OCO2 [Compound 2888]             10.9
6  CN(C)C(=O)c1cccc(Oc2cc(COP(=O)(N3CC3)N3CC3)ccc2[N+](=O)[O-])c1 [Compound 2889]             10.3
7  O=[N+]([O-])c1ccc(COP(=O)(N2CC2)N2CC2)cc1Oc1ccc2ncsc2c1 [Compound 2901]             12.1

###

assay_remarks: Pharmacokinetics of TH2953 in NU/NU mice with A549 and H460 xenografts
Type: in vivo, Mouse/Nu-Foxn 1nu NU/NU mice
reported_conditions: Nu-Foxn1nu NU/NU, mouse, tumor (relative to plasma), intraperitoneal; A549 tumor xenograft; 10 and 40 mg/kg ip; read-out: concentration in the tumor as % of the concentrations in plasma
value_type: Kp

> print(dat)
                                   compound   measured.result
1  CC(OP(=O)(N1CC1)N1CC1)c1ccc([N+](=O)[O-])c(Oc2ccc(-c3ccccc3)cc2)c1 (stereo not shown)  0.0208 to 0.0834

###

assay_remarks: Pharmacokinetics in CD-1 mice following a single intraperitoneal dose (parent and TH2660)
reported_conditions: mouse, in vivo, ip, parent compound
Below, each entry is listed with its recorded Tmax.
value_type: Tmax (min)

> print(dat)
                                   compound  value.units  measured.result
1  Cc1ccc(Oc2cc(COP(=O)(N3CC3)N3CC3)ccc2[N+](=O)[O-])cn1          min                5
2  O=[N+]([O-])c1ccc(COP(=O)(N2CC2)N2CC2)cc1Oc1ccc2c(c1)OCO2          min                5
3  CN(C)C(=O)c1cccc(Oc2cc(COP(=O)(N3CC3)N3CC3)ccc2[N+](=O)[O-])c1          min                5
4  O=[N+]([O-])c1ccc(COP(=O)(N2CC2)N2CC2)cc1Oc1ccc2ncsc2c1          min                5
5  COc1ccc(Oc2cc(C(C)OP(=O)(N3CC3)N3CC3)ccc2[N+](=O)[O-])cc1 (stereo not shown)          min                5
6  CC(OP(=O)(N1CC1)N1CC1)c1ccc([N+](=O)[O-])c(Oc2ccc(NS(=O)(=O)CCl)cc2)c1 (stereo not shown)          min               15
7  CC(OP(=O)(N1CC1)N1CC1)c1ccc([N+](=O)[O-])c(Oc2ccc(S(C)(=O)=O)cc2)c1 (stereo not shown)          min               15
